Give kcat/KM for every item shown.
- Target desc: Factor X (FX), P00742
- Sequence (P00742 whole entry, looked up): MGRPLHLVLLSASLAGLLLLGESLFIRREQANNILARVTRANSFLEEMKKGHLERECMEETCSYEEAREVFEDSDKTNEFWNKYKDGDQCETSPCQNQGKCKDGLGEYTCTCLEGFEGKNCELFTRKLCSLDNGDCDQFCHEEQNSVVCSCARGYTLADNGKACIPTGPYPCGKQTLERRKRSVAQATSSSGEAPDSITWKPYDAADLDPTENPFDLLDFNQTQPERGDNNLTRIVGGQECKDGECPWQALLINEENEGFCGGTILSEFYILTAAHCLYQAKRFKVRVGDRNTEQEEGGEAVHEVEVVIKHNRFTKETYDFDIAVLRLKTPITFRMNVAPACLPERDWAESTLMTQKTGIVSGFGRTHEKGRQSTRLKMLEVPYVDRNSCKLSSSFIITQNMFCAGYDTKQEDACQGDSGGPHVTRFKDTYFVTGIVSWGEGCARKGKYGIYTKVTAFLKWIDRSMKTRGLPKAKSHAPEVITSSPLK
Answers are plain numbers, in M⁻¹ s⁻¹.

Protein: FIXa variant R338E/R403E/E410N (protein) chain 1: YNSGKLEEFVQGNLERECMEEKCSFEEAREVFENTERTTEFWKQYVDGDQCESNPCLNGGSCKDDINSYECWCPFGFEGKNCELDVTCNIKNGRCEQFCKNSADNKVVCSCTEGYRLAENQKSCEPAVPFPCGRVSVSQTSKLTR chain 2: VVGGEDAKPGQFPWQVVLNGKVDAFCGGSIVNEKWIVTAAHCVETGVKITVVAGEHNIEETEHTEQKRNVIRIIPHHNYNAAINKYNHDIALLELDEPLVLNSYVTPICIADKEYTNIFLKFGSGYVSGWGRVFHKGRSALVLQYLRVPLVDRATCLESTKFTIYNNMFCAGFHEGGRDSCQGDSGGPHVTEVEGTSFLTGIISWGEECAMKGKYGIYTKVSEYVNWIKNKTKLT
Uom: M⁻¹ s⁻¹
kcat/KM: 1.9e+08

Okay, next one:
stdin: Record request: kcat/KM value, item FIXa-D85N/K228N/R318Y/R338E/R403E/E410N (protein) chain 1: YNSGKLEEFVQGNLERECMEEKCSFEEAREVFENTERTTEFWKQYVDGDQCESNPCLNGGSCKDDINSYECWCPFGFEGKNCELNVTCNIKNGRCEQFCKNSADNKVVCSCTEGYRLAENQKSCEPAVPFPCGRVSVSQTSKLTR chain 2: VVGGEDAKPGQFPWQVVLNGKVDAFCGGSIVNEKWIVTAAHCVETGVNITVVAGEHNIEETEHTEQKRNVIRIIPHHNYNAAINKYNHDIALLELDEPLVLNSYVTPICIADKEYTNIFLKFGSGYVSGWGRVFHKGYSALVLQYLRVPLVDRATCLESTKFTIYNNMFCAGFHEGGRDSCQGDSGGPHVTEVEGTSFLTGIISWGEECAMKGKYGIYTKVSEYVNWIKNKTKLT
stdout: 1.6e+08
